These data points were gathered from PubChem BioAssay AID2060496.

System: 276233-004-R-J1-PDC complex spheroid viability
measurement.description: Anticancer human tumor 276233-004-R-J1-PDC patient-derived colon adenocarcinoma cell line growth inhibition [GQUAD]
condition.details: second compound 0.316 µM; first compound 0.00316 µM; hits give low values
Rule: viability, T/C below 90% gives TRUE. Equal to or above 90% gives FALSE.

# molecule, group.label
measured = [
    ("Cc1[nH]c2ccccc2c1CCNCc1ccc(/C=C/C(=O)NO)cc1 + Cc1cnc(CNC(=O)c2c(=O)c3ccc(N4CCCN(C)CC4)nc3n3c2sc2ccccc23)cn1", "FALSE"),
    ("CCc1c2c(nc3ccc(O)cc13)-c1cc3c(c(=O)n1C2)COC(=O)[C@]3(O)CC + Cc1[nH]c2ccc(F)cc2c1-c1nc2c3cccnc3c3ncccc3c2[nH]1", "TRUE"),
    ("Cc1[nH]c2ccccc2c1CCNCc1ccc(/C=C/C(=O)NO)cc1 + CN(C)c1ccc(Nc2c3ccc(NC(=O)CCN4CCCC4)cc3nc3cc(NC(=O)CCN4CCCC4)ccc23)cc1", "TRUE"),
]

Now consider the entry below.
Ask: State whether 90% exceeds viability, T/C recorded for Cn1ncnc1[C@H]1c2n[nH]c(=O)c3cc(F)cc(c23)N[C@@H]1c1ccc(F)cc1 + CN(C)c1ccc(Nc2c3ccc(NC(=O)CCN4CCCC4)cc3nc3cc(NC(=O)CCN4CCCC4)ccc23)cc1 .
Result: TRUE

---

Tested on: 276233-004-R-J1-PDC complex spheroid viability
measurement.description: Anticancer human tumor 276233-004-R-J1-PDC cell line growth inhibition [GQUAD];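 further: spheroids exposed to drugs for seven days; 100% = DMSO vehicle control viability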
condition.details: second compound 0.316 µM; first compound 10 µM; hits give low values
recorded.metric: viability, T/C (%)
Lab book: enter the figure in %, no units written.

Worked examples follow.
# compound, recorded.metric, reported.result
rows = [
    ("CC1COCCN1c1cc(C2(O)CC3CCC(C2)O3)c2cnn(-c3ccn[nH]3)c2n1 (centres undefined) + Cc1[nH]c2ccc(F)cc2c1-c1nc2c3cccnc3c3ncccc3c2[nH]1", "viability, T/C", 36),
    ("CC1COCCN1c1cc(C2(O)CC3CCC(C2)O3)c2cnn(-c3ccn[nH]3)c2n1 (centres undefined) + CN(C)c1ccc(Nc2c3ccc(NC(=O)CCN4CCCC4)cc3nc3cc(NC(=O)CCN4CCCC4)ccc23)cc1", "viability, T/C", 28.8),
]

Ask: Give the reported value of viability, T/C for this record: COc1ccc([C@@H](O)c2cc(-c3ncnc4cc(N5CCOCC5)ccc34)c(F)cc2Cl)nn1 + CN(C)c1ccc(Nc2c3ccc(NC(=O)CCN4CCCC4)cc3nc3cc(NC(=O)CCN4CCCC4)ccc23)cc1
Result: 39.1

---

Test system: 276233-004-R-J1-PDC complex spheroid viability
measurement.description: Anticancer human tumor 276233-004-R-J1-PDC cell line growth inhibition [GQUAD];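 further: spheroids exposed to drugs for seven days; 100% = DMSO vehicle control viability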
condition.details: second compound 0.316 µM; first compound 10 µM; hits give low values
recorded.metric: viability, T/C (%)
Lab book: enter the figure in %, no units written.

Worked examples follow.
# molecule, output.unit, reported.result
measured = [
    ("COc1cccc2c1C(=O)c1c(O)c3c(c(O)c1C2=O)CC(O)(C(=O)CO)CC3OC1CC(N)C(O)C(C)O1 (stereo unspecified) + Cc1[nH]c2ccc(F)cc2c1-c1nc2c3cccnc3c3ncccc3c2[nH]1", "%", 34.2),
    ("COc1cc(C2c3cc4c(cc3C(OC3OC5COC(C)OC5C(O)C3O)C3COC(=O)C23)OCO4)cc(OC)c1O (stereo unspecified) + Cc1[nH]c2ccc(F)cc2c1-c1nc2c3cccnc3c3ncccc3c2[nH]1", "%", 69),
    ("C#Cc1c(F)ccc2cc(O)cc(-c3ncc4c(N5CC6CCC(C5)N6)nc(OCC56CCCN5CC(F)C6)nc4c3F)c12 (stereo unspecified) + Cc1[nH]c2ccc(F)cc2c1-c1nc2c3cccnc3c3ncccc3c2[nH]1", "%", 27.4),
    ("O=C(c1cc(Cc2n[nH]c(=O)c3ccccc23)ccc1F)N1CCN(C(=O)C2CC2)CC1 + Cc1[nH]c2ccc(F)cc2c1-c1nc2c3cccnc3c3ncccc3c2[nH]1", "%", 81.4),
    ("CCCS(=O)(=O)Nc1ccc(F)c(C(=O)c2c[nH]c3ncc(-c4ccc(Cl)cc4)cc23)c1F + CN(C)c1ccc(Nc2c3ccc(NC(=O)CCN4CCCC4)cc3nc3cc(NC(=O)CCN4CCCC4)ccc23)cc1", "%", 55.1),
]

Query molecule follows.
Ask: Give the reported value of viability, T/C for this record: C=CCn1c(=O)c2cnc(Nc3ccc(N4CCN(C)CC4)cc3)nc2n1-c1cccc(C(C)(C)O)n1 + Cc1[nH]c2ccc(F)cc2c1-c1nc2c3cccnc3c3ncccc3c2[nH]1
Result: 61.4
